Values from the supplement of paper PMC9170038

tested on: MS2 coat protein; assay: apparent KD of MS2 coat protein; designed switch direction (-1 OFF switch, 1 ON switch): -1; higher = weaker reporter binding; details: input ligand: FMN 200 uM
Listing of recorded apparent KD of MS2 coat protein by entry.
Hi! Could you send only the number? It should be in nM, unit omitted.

Examples from the recorded data:
Sequence Record: UACAUGAGGAUCACCCAUGUUUUGUCGUGUAUGGUAUUUAUCUAGGAUAUCAAGUUAUUUAUGUAUGAGAAGGAGAAUAUUAAU [JMF's solution 36] (Eterna round: R96, puzzle: Exclusion NG 3)
Unit Of Measure: nM
apparent KD of MS2 coat protein: 42.5
//
Sequence Record: GCUUGACGAGGAUAUGCAUACACUGGAUACAGUGGAAGGUCACAUGAGGAUCACCCAUGUAGAAGGCGUCGAGC [EX2 #40] (Eterna round: R97, puzzle: Exclusion 2)
Unit Of Measure: nM
apparent KD of MS2 coat protein: 123

Now take the following sequence into account.
input: Give reported apparent KD of MS2 coat protein value for UUUGUUUGCACAGGAUAUUGUUAUUUUUUUUUUCAAGAAGGGUGUACAUGAGGAUCACCCAUGUUAUGGUUUUAUCUUUUACUU [JR_ExcNG1_Sub011] (Eterna round: R96, puzzle: Exclusion NG 1)
output: 764
